Numbers sourced from ChEMBL document CHEMBL2040806.

- Test Target: Dual specificity protein kinase CLK1 (Mus musculus)
- Sequence (P22518 whole entry, the tested form may be a part): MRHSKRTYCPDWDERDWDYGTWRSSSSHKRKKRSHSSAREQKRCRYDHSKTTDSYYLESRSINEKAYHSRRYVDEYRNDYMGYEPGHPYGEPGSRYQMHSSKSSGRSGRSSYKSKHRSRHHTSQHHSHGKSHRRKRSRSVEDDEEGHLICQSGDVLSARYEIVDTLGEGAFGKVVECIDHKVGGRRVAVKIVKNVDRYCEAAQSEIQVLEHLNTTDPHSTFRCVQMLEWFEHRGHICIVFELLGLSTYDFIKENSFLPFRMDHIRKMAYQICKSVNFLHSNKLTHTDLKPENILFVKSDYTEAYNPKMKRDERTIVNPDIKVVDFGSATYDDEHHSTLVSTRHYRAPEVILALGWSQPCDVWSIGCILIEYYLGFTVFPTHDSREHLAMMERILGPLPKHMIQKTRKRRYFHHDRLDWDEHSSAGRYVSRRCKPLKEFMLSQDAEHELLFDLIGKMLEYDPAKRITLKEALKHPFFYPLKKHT
- Procedure Summary: Inhibition of GST-fused mouse recombinant CLK1 expressed in Escherichia coli using RS peptide as substrate
pIC50: −log10 of the molar value.
Reported Property: pIC50

Use the examples below as a reference point.
>>> df
                           smiles_structure                               test_target  reported_property  recorded_measurement
0  Cc1ccc2[nH]c3c(c4c(n5cccc35)C(=O)NC4=O)c2c1  Dual specificity protein kinase CLK1 (Mus musculus)              pIC50                  5.82
1  Cc1ccc2[nH]c3c4cn[nH]c4c4c(c3c2c1)C(=O)NC4=O  Dual specificity protein kinase CLK1 (Mus musculus)              pIC50                  6.89
2  COc1ccc2[nH]c3c(c4c(n5cccc35)C(=O)NC4=O)c2c1  Dual specificity protein kinase CLK1 (Mus musculus)              pIC50                  5.00
3  O=C1NC(=O)c2c1c1c3cc(O)ccc3[nH]c1c1cccn21  Dual specificity protein kinase CLK1 (Mus musculus)              pIC50                  6.59
4  O=C1NC(=O)c2c1c1c3cc(O)ccc3[nH]c1n1nccc21  Dual specificity protein kinase CLK1 (Mus musculus)              pIC50                  7.05

(I) Cc1ccc2[nH]c3c(c4c(c5ccnn53)C(=O)NC4=O)c2c1
(II) O=C1NC(=O)c2c1c1[nH]ncc1c1[nH]c3ccccc3c21
INPUT: Between these two entries, I and II , state which has the higher pIC50. Write the label of whichever entry you select.
OUTPUT: II
(II: 6.38, I: 5.46)

(a) O=C1NC(=O)c2c1c1c3ccccc3[nH]c1c1cccn21
(b) O=C1NC(=O)c2c1c1c3ccccc3[nH]c1n1nccc21
INPUT: Would you mind telling me which has the lower recorded pIC50 between a and b ? Write the label of whichever entry you select.
OUTPUT: a

* * *

- Test Target: Cyclin-dependent kinase 5/CDK5 activator 1 (Homo sapiens)
- Sequence (Q00535 whole entry): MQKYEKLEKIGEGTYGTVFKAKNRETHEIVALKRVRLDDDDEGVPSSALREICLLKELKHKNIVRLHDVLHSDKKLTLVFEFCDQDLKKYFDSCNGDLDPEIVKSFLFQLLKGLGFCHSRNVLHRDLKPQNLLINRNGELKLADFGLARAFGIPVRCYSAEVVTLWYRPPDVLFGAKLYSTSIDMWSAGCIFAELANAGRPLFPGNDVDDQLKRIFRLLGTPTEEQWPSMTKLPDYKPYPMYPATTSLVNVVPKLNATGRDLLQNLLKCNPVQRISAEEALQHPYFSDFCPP
- Sequence (Q15078 whole entry, further chain): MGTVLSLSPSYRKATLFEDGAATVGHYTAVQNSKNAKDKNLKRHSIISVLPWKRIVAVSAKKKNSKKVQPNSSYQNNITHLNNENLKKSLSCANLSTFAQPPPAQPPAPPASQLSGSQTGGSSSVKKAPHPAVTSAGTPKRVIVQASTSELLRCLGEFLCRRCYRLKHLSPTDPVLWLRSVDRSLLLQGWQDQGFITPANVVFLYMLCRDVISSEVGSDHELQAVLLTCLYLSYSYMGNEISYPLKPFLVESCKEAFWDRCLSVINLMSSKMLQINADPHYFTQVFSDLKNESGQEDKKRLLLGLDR
- Procedure Summary: Inhibition of human recombinant CDK5/p25
pIC50: −log10 of the molar value.
Reported Property: pIC50

Use the examples below as a reference point.
>>> print(df.to_string())
                           smiles_structure  reported_property  recorded_measurement
0  O=C1NC(=O)c2c1c1c3cc(O)ccc3[nH]c1c1cccn21              pIC50                  5.59
1  Cc1ccc2[nH]c3c(c4c(n5cccc35)C(=O)NC4=O)c2c1              pIC50                  5.12
2  O=C1NC(=O)c2c1c1c3cc(O)ccc3[nH]c1n1nccc21              pIC50                  6.29

(1) O=C1NC(=O)c2c1c1c3ccccc3[nH]c1n1nccc21
(2) O=C1NC(=O)c2c1c1[nH]ncc1c1[nH]c3ccccc3c21
(3) O=C1NC(=O)c2c1c1c3ccccc3[nH]c1c1cccn21
(4) Cc1ccc2[nH]c3c4cn[nH]c4c4c(c3c2c1)C(=O)NC4=O
INPUT: List the 4 entries from lowest pIC50 to highest pIC50 value. Write out the labels following the order that was asked for.
OUTPUT: 1, 3, 2, 4
(1: 5.40, 3: 5.68, 2: 6.04, 4: 6.51)
